- test system: EBP (Homo sapiens, UniProt Q15125)
- Construct: HEK293T cells were utilized as the source of EBP enzyme; endogenous in cells
- Sequence (Q15125 whole entry): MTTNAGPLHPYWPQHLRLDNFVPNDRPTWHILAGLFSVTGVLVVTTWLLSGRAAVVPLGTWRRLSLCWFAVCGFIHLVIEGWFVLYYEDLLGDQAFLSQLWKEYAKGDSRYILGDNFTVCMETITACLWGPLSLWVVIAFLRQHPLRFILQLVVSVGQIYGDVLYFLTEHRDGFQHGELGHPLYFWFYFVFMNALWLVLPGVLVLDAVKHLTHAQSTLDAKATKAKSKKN
- protocol: EBP Functional Assay (EBP immunoaffinity LC-MS assay)
- conditions: EBP enzyme from HEK293T cells; 30 min with inhibitor, then zymosterol-d5 at 37° C. for 4 h; percent conversion by LC-APCI MRM MS
pIC50: −log10 of the molar value.
quantity measured: pIC50

**Query** Requested read-out pIC50, target or system EBP (Homo sapiens, UniProt Q15125), entry "O=S(=O)(c1ccc(OC(F)F)cc1)N1C[C@H]2C[C@H](N3CCOCC3)C[C@H]2C1"
**Result** < 6.30

**Query** Okay, and Cc1nc(C(F)(F)F)ccc1S(=O)(=O)N1C[C@H]2CN(C3CC4(COC4)C3)C[C@@H]2C1 (racemic) ?
**Result** > 7.00

**Query** What about Cc1cc(S(=O)(=O)N2C[C@H]3CN(C4CCOCC4)C[C@H]3C2)n(C)n1 [Example 49] ?
**Result** < 6.30

**Query** Record: "Cc1nc(C(F)(F)F)ccc1S(=O)(=O)N1C[C@H]2C[C@H](NCC3(C)COC3)C[C@H]2C1"
**Result** > 7.00

**Query** Next record, please: "Cc1nc(C(F)(F)F)ccc1S(=O)(=O)N1C[C@H]2C[C@H](NC3CC4(COC4)C3)C[C@H]2C1"
**Result** 6.30 to 7.00

**Query** Please do the same for "Cc1ccc(S(=O)(=O)N2C[C@H]3C[C@@H](N4CCC(C)CC4)C[C@H]3C2)c(C)c1" as well.
**Result** > 7.00

**Query** Now the same for "O=S(=O)(c1ccc(OC(F)F)cc1)N1C[C@H]2C[C@H](NCC3CCOCC3)C[C@H]2C1"
**Result** 6.30 to 7.00

**Query** Likewise for Cc1nc(C(F)(F)F)ccc1S(=O)(=O)N1C[C@H]2CN(C3CCOCC3)C[C@@H]2C1 [Example 45] ?
**Result** 6.30 to 7.00

**Query** # iterate: "Cc1nc(C(F)(F)F)nc(C)c1S(=O)(=O)N1C[C@H]2CN(CC3CCOCC3)C[C@@H]2C1"
**Result** > 7.00

**Query** Record: Cc1nc(C(F)(F)F)ncc1S(=O)(=O)N1C[C@H]2CN(CC3CCOCC3)C[C@@H]2C1 (racemic)
**Result** 6.30 to 7.00

**Query** Same read-out for Cc1nc(C(F)(F)F)ccc1S(=O)(=O)N1C[C@@H]2CN(C3CCOCC3)C[C@H]2C1 (single isomer, unassigned) ?
**Result** 6.30 to 7.00

**Query** Same question, Cc1nc(C(F)(F)F)ncc1S(=O)(=O)N1C[C@H]2CN(C3CC4(COC4)C3)C[C@@H]2C1 (racemic) this time
**Result** 6.30 to 7.00

**Query** Repeat with "Cc1nc(C(F)(F)F)nc(C)c1S(=O)(=O)N1C[C@H]2CN(C3CCOCC3)C[C@@H]2C1"
**Result** > 7.00

**Query** How about "Cn1nc(C2CC2)cc1S(=O)(=O)N1C[C@H]2C[C@H](NCC3CCOCC3)C[C@H]2C1" ?
**Result** 6.30 to 7.00
